# run_description: chemical genetic growth profiling, strain panel (AID 1159580);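 note: tested at 20 µM; growth read once vehicle control cultures reached saturation at 30 °C; 1 = growth at the plate median or of vehicle wells; lower values mean less growth of the strain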
# recorded_conditions: S. cerevisiae deletion strains, growth OD, locus YLR418C, strain cdc73, hits give low values
The whole screen tested about 5,500 compounds, of which about 2,000 (36%) were called active. Not shown: some 18% with an inconclusive outcome. This is one part of the list.
experimental_endpoint: normalized growth

[[record]]
molecule = "COc1ccc2c(c1)OC[C@@H](Cc1ccc(OC)c(OC)c1)[C@@H]2O"
reported = 1.01

[[record]]
molecule = "O=C(O)C1CC([C@@H]2CCCCN2)CN2CCCCC12 (some centres not stated)"
reported = 1.01

[[record]]
molecule = "OCCN(CCO)c1nc(N2CCCCC2)c2nc(N(CCO)CCO)nc(N3CCCCC3)c2n1"
reported = 0.976

[[record]]
molecule = "Nc1nc2[nH]c(=O)c(=O)[nH]c2c(=O)[nH]1"
reported = 0.971

[[record]]
molecule = "O=C(O)COc1cc(Cl)c(Cl)cc1Cl"
reported = 1.04

[[record]]
molecule = "OCC(O)Cc1ccc2c(c1)OCO2 (configuration not stated)"
reported = 1.02

[[record]]
molecule = "COC(=O)COc1cc(Cl)c(Cl)cc1Cl"
reported = 0.859

[[record]]
molecule = "CC(=O)O[C@]1(C(C)=O)CCC2C3C=C(C)C4=CC(=O)CCC4(C)C3CCC21C (some centres not stated)"
reported = 0.627

[[record]]
molecule = "C=CC(C)(C)c1c2c(c(O)c3c(=O)c4ccc(O)c(O)c4oc13)C=CC(C)(C)O2"
reported = 0.51

[[record]]
molecule = "CC[C@@H](CO)NCCN[C@@H](CC)CO"
reported = 1.01

[[record]]
molecule = "CC(=O)[C@H]1CCC2C3C[C@H](C)C4=CC(=O)CC[C@]4(C)C3[C@@H](O)C[C@@]21C (some centres not stated)"
reported = 0.97

[[record]]
molecule = "COc1ccc2c(c1)[C@@]1(C)CCC(=O)C[C@H]1CC2"
reported = 0.956

[[record]]
molecule = "COC(=O)C1[C@H]2C[C@H]3c4[nH]c5ccccc5c4CCN3C[C@@H]2CC[C@@H]1O (some centres not stated)"
reported = 1.02

[[record]]
molecule = "CCC(C(N)=O)c1ccccc1 (configuration not stated)"
reported = 1.06

[[record]]
molecule = "O=C(O)c1ccccc1OP(=O)(O)O"
reported = 0.994

[[record]]
molecule = "COC(=O)[C@H]1[C@H]2C[C@H]3c4[nH]c5ccccc5c4CCN3C[C@H]2CC[C@@H]1O"
reported = 0.985

[[record]]
molecule = "COc1ccc2c(c1)C1(C)CCC(=O)CC1CC2 (configuration not stated)"
reported = 0.962


* * *

# run_description: chemical genetic growth profiling, strain panel (AID 1159580);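 note: tested at 20 µM; growth read once vehicle control cultures reached saturation at 30 °C; 1 = growth at the plate median or of vehicle wells; lower values mean less growth of the strain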
# recorded_conditions: S. cerevisiae deletion strains, growth OD, locus YKL068W, hits give low values
The whole screen tested about 5,500 compounds, of which about 2,000 (36%) were called active. Another 18% or so got no clear call; they are omitted. The list shows a part of the results.
experimental_endpoint: normalized growth

[[record]]
compound = "Cc1ccc(O)cc1"
reported = 1

[[record]]
compound = "CC1(O)/C=C/C=C(\\CO)C2CC(C)(C)C2(O)CC1 (stereo unspecified)"
reported = 1.01

[[record]]
compound = "O=C(O)C1C(O)CCC2CN3CCc4c([nH]c5ccccc45)C3CC21 (stereo unspecified)"
reported = 1.01

[[record]]
compound = "CC(C)=CCc1c(O)cc(C)oc1=O"
reported = 0.98

[[record]]
compound = "Nc1nc2[nH]c(=O)c(=O)[nH]c2c(=O)[nH]1"
reported = 1.01

[[record]]
compound = "O=C(O)c1ccccc1OP(=O)(O)O"
reported = 0.988

[[record]]
compound = "COC(=O)COc1cc(Cl)c(Cl)cc1Cl"
reported = 0.955

[[record]]
compound = "CCc1ccc(CCOc2ccc(CC3SC(=O)NC3=O)cc2)nc1 (stereo unspecified)"
reported = 0.991

[[record]]
compound = "CC(=O)[C@H]1CCC2C3C[C@H](C)C4=CC(=O)CC[C@]4(C)C3[C@@H](O)C[C@@]21C (stereo partly specified)"
reported = 0.977

[[record]]
compound = "CC(=O)O[C@]1(C(C)=O)CCC2C3C[C@H](C)C4=CC(=O)CC[C@]4(C)C3CC[C@@]21C (stereo partly specified)"
reported = 0.971

[[record]]
compound = "CC(=O)O[C@]1(C(C)=O)CCC2C3C=C(C)C4=CC(=O)CCC4(C)C3CCC21C (stereo partly specified)"
reported = 0.98

[[record]]
compound = "CC(=O)O[C@@](C)(CCC=C(C)C)C1CC=C(C)CC1 (stereo partly specified)"
reported = 0.997

[[record]]
compound = "COC(=O)COc1ccc(Cl)cc1Cl"
reported = 1.01

[[record]]
compound = "Oc1ccc(O)cc1"
reported = 1.01

[[record]]
compound = "N=c1nc(N2CCCCC2)cc(N)n1O"
reported = 0.993

[[record]]
compound = "CC1(C)S[C@@H]2[C@H](NC(=O)[C@H](NC(=O)N3CCNC3=O)c3ccccc3)C(=O)N2C1C(=O)O (stereo partly specified)"
reported = 0.979

